target: serotonin (5-HT) reuptake (Rattus norvegicus, UniProt P31652); construct: synaptosomes are freshly isolated from areas of the rat brain; from tissue; host or cells: rat brain synaptosomes (P2 fraction); test: Inhibition of serotonin (5HT) reuptake in synaptosomes from rat brain; format: biochemical; details: test concentration of 10 μM
Sequence (P31652 whole entry): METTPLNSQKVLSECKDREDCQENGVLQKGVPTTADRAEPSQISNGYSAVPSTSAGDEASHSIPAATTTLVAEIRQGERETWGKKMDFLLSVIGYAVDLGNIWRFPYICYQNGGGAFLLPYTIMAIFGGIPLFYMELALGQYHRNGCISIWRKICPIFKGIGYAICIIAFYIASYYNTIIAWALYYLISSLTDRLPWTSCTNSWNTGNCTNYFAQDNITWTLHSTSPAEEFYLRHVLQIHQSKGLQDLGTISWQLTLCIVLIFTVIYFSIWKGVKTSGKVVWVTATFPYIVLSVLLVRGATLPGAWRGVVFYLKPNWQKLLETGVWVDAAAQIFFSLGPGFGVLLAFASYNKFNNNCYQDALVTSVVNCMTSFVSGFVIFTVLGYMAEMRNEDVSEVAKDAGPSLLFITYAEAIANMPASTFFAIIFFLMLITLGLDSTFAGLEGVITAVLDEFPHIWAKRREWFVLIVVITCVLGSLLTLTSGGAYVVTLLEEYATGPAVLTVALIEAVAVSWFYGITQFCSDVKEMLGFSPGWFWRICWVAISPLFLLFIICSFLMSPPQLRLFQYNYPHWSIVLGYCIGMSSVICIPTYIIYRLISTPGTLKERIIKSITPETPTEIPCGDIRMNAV
Reported 5-HT (inhibition of reuptake of serotonin, % inhibition) values follow for various molecules
ASSAY ENDPOINT: 5-HT (inhibition of reuptake of serotonin, % inhibition) (%)

[
  {
    "MOLECULE": "Cc1cc(C)c(S(=O)(=O)N2CCC(OCC(=O)NCCC3CCC(C(c4ccc(F)cc4)N(C)C)CC3)C2)c(C)c1 (stereo not shown)",
    "VALUE MEASURED": 77
  },
  {
    "MOLECULE": "COc1ccc(S(=O)(=O)N2CCCCC2COCC(=O)NCC2CCC(C(c3ccc(Cl)cc3)N(C)C)CC2)cc1 (stereo not shown)",
    "VALUE MEASURED": 86
  },
  {
    "MOLECULE": "COc1ccc(S(=O)(=O)N2CCC(OCC(=O)NCCC3CCC(C(c4ccc(Cl)cc4)N(C)C)CC3)C2)cc1OC (stereo not shown)",
    "VALUE MEASURED": 86
  },
  {
    "MOLECULE": "CN(C)C(c1ccc(F)cc1)C1CCC(NC(=O)COC2CCN(S(=O)(=O)c3cccc(C(F)(F)F)c3)C2)CC1 (stereo not shown)",
    "VALUE MEASURED": 90
  },
  {
    "MOLECULE": "Cc1cc(C)c(S(=O)(=O)N(C)CCOCC(=O)NC2CCC(C(c3ccc(F)cc3)N(C)C)CC2)c(C)c1 (stereo not shown)",
    "VALUE MEASURED": 86
  },
  {
    "MOLECULE": "CN(C)C(c1ccccc1)C1CCC(NC(=O)COC2CCN(S(=O)(=O)c3ccccc3)CC2)CC1 (stereo not shown)",
    "VALUE MEASURED": 86
  },
  {
    "MOLECULE": "COc1cc(C)c(S(=O)(=O)N2CCN(CCOCC(=O)NCCC3CCC(C(c4ccc(F)cc4)N(C)C)CC3)CC2)c(C)c1C (stereo not shown)",
    "VALUE MEASURED": 95
  }
]

----------
target: bradykinin 1 receptor (B1R) of the rat (Rattus norvegicus, UniProt P97583); construct: expressed in transfected cells; host or cells: CHO K1 cells; test: Functional investigation on the rat bradykinin 1 receptor (B1R), Ca2+ FLIPR assay in CHO K1 rB1R cells; assay type: cell-based; settings: CHO-K1, B1R antagonism rat; test substance 10 μM; Ca2+ FLIPR, CHO K1 rB1R cells; read-out: B1R Ant. r [10 μM] % Inhibition
Sequence (P97583 whole entry): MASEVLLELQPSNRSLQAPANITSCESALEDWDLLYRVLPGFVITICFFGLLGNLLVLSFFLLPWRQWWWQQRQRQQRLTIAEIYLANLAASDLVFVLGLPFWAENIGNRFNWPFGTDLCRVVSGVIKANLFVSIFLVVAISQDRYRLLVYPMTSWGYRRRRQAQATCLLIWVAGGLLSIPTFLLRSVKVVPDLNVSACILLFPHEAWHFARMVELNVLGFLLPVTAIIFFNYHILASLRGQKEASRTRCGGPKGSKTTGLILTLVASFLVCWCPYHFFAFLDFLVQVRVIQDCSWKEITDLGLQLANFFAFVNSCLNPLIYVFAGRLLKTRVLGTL
// inhibition at 10 µM lookup, one value per entry
ASSAY ENDPOINT: inhibition at 10 µM

[
  {
    "COMPOUND": "CN(C)C(c1cccs1)C1CCC(CNC(=O)COC2CCN(S(=O)(=O)c3ccccc3)C2)CC1 (centres unmarked) [Example 36]",
    "ASSAY ENDPOINT": "inhibition at 10 µM",
    "VALUE MEASURED": "3%"
  },
  {
    "COMPOUND": "COc1ccc(S(=O)(=O)N2CCCCC2CCOCC(=O)NC2CCC(C(c3cccs3)N(C)C)CC2)cc1 (centres unmarked) [Example 6]",
    "ASSAY ENDPOINT": "inhibition at 10 µM",
    "VALUE MEASURED": "34%"
  },
  {
    "COMPOUND": "CN(C)C(c1ccccc1)C1CCC(NC(=O)COC2CCN(S(=O)(=O)c3c(Cl)cc(Cl)cc3Cl)C2)CC1 (centres unmarked) [Example 609]",
    "ASSAY ENDPOINT": "inhibition at 10 µM",
    "VALUE MEASURED": "32%"
  },
  {
    "COMPOUND": "CCN(CCOCC(=O)NCC1CCC(C(c2cccc(F)c2)N(C)C)CC1)S(=O)(=O)c1c(C)cc(OC)c(C)c1C (centres unmarked) [Example 117]",
    "ASSAY ENDPOINT": "inhibition at 10 µM",
    "VALUE MEASURED": "77%"
  },
  {
    "COMPOUND": "O=C(COCC1CCCN1S(=O)(=O)c1c(Cl)cc(Cl)cc1Cl)NCC1CCC(C(c2ccccc2)N2CCOCC2)CC1 (centres unmarked) [Example 710]",
    "ASSAY ENDPOINT": "inhibition at 10 µM",
    "VALUE MEASURED": "92%"
  },
  {
    "COMPOUND": "CN(C)C(CCc1ccccc1)C1CCC(NC(=O)CNC(=O)c2nc(-c3ccc(C(F)(F)F)cc3)no2)CC1 (centres unmarked) [Example 785]",
    "ASSAY ENDPOINT": "inhibition at 10 µM",
    "VALUE MEASURED": "32%"
  },
  {
    "COMPOUND": "COc1cc(C)c(S(=O)(=O)N2CCC(OCC(=O)NC3CCC(C(c4cccs4)N(C)C)CC3)CC2)c(C)c1C (centres unmarked) [Example 1]",
    "ASSAY ENDPOINT": "inhibition at 10 µM",
    "VALUE MEASURED": "-5%"
  },
  {
    "COMPOUND": "O=C(COC1CCN(S(=O)(=O)c2c(Cl)cc(Cl)cc2Cl)C1)NC1CCC(C(c2ccccc2)N2CCOCC2)CC1 (centres unmarked) [Example 610]",
    "ASSAY ENDPOINT": "inhibition at 10 µM",
    "VALUE MEASURED": "5%"
  },
  {
    "COMPOUND": "CN(C)C(c1cccc(F)c1)C1CCC(CNC(=O)CNC(=O)c2nc(-c3ccc(C(F)(F)F)cc3)no2)CC1 (centres unmarked) [Example 778]",
    "ASSAY ENDPOINT": "inhibition at 10 µM",
    "VALUE MEASURED": "12%"
  },
  {
    "COMPOUND": "O=C(COCC1CCCN(S(=O)(=O)c2c(Cl)cc(Cl)cc2Cl)C1)NC1CCC(C(c2ccccc2)N2CCCC2)CC1 (centres unmarked) [Example 633]",
    "ASSAY ENDPOINT": "inhibition at 10 µM",
    "VALUE MEASURED": "63%"
  },
  {
    "COMPOUND": "COc1cc(C)c(S(=O)(=O)N(C)CCOCC(=O)NC2CCC(C(c3ccccc3)N3CCOCC3)CC2)c(C)c1C (centres unmarked) [Example 619]",
    "ASSAY ENDPOINT": "inhibition at 10 µM",
    "VALUE MEASURED": "12%"
  },
  {
    "COMPOUND": "COc1cc(C)c(S(=O)(=O)N2CCCC(OCC(=O)NC3CCC(C(c4ccccc4)N4CCOCC4)CC3)C2)c(C)c1 (centres unmarked) [Example 693]",
    "ASSAY ENDPOINT": "inhibition at 10 µM",
    "VALUE MEASURED": "50%"
  },
  {
    "COMPOUND": "Cc1cc(C)c(S(=O)(=O)N2CCC(OCC(=O)NC3CCC(C(c4ccccc4)N(C)C)CC3)C2)c(C)c1 (centres unmarked) [Example 64]",
    "ASSAY ENDPOINT": "inhibition at 10 µM",
    "VALUE MEASURED": "16%"
  },
  {
    "COMPOUND": "CN(C)C(c1ccccc1)C1CCC(NC(=O)COCCN(C)S(=O)(=O)c2ccc(Cl)cc2Cl)CC1 (centres unmarked) [Example 33]",
    "ASSAY ENDPOINT": "inhibition at 10 µM",
    "VALUE MEASURED": "9%"
  }
]

----------
target: bradykinin 1 receptor (B1R) of the rat (Rattus norvegicus); construct: expressed in transfected cells; host or cells: CHO K1 cells; experiment: Functional investigation on the rat bradykinin 1 receptor (B1R), Ca2+ FLIPR assay in CHO K1 rB1R cells; assay type: cell-based; details: CHO-K1, B1R antagonism rat; test substance 10 μM; Ca2+ FLIPR, CHO K1 rB1R cells; read-out: B1R Ant. r [10 μM] % Inhibition

[
  {
    "COMPOUND": "CN(C)C(c1ccccc1)C1CCC(NC(=O)COCCN(C)S(=O)(=O)c2c(Cl)cc(Cl)cc2Cl)C1 (stereo not shown)",
    "inhibition at 10 µM (%)": 26
  },
  {
    "COMPOUND": "CN1CCN(C(c2ccccc2)C2CCC(NC(=O)COCCN(C)S(=O)(=O)c3c(Cl)cccc3Cl)CC2)CC1 (stereo not shown)",
    "inhibition at 10 µM (%)": 61
  },
  {
    "COMPOUND": "COc1cc(C)c(S(=O)(=O)N(C)CCOCC(=O)NC2CCC(C(c3cccs3)N(C)C)CC2)c(C)c1 (stereo not shown)",
    "inhibition at 10 µM (%)": 104
  },
  {
    "COMPOUND": "CN(CCOCC(=O)NCC1CCC(C(c2ccccc2)N2CCOCC2)CC1)S(=O)(=O)c1c(Cl)cc(C(F)(F)F)cc1Cl (stereo not shown)",
    "inhibition at 10 µM (%)": 29
  },
  {
    "COMPOUND": "Cc1cc(C)c(S(=O)(=O)N2CCC(OCC(=O)NC3CCC(C(c4cccs4)N(C)C)CC3)C2)c(C)c1 (stereo not shown)",
    "inhibition at 10 µM (%)": 30
  },
  {
    "COMPOUND": "CN(C)C(c1cccc(F)c1)C1CCC(NC(=O)COCCN(Cc2ccccc2)S(=O)(=O)c2ccccc2)CC1 (stereo not shown)",
    "inhibition at 10 µM (%)": 5
  },
  {
    "COMPOUND": "Cc1ccc(S(=O)(=O)N2CCC(OCC(=O)NCC3CCC(C(c4cccs4)N(C)C)CC3)C2)cc1 (stereo not shown)",
    "inhibition at 10 µM (%)": 39
  }
]
